Target: T1, mouse common cytokine receptor γ-chain (IL-2Rγ) (mouse, UniProt P34902 23-263, limits assumed)
T1 construct: Recombinant mouse IL-2Rγ protein; also called mo IL-2R; mouse IL-2R gamma
T1 sequence (looked up): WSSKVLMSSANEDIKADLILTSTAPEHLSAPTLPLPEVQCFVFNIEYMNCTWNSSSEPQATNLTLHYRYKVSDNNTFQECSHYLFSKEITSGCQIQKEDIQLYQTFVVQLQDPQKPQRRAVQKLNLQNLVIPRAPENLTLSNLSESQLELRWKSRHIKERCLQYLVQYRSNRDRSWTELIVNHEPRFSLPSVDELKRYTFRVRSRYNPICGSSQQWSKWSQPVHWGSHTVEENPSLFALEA
Experiment: P.E. off-rate SPR
measurement label: koff (s⁻¹)
Please reply with the bare figure in s⁻¹ and do not write the unit itself.

INSERT INTO assay_data (binder, readout_value) VALUES
  ('FJ1427_P035MP07B06 (VHH, tested as periplasmic extract; also called Clone nr; 618) VHH: EVQLVESGGGLVQAGGSLRLSCAASGRTLSRYAMGWFRQAPGKEREFVTANSWGGDTYYADSVQGRFTFSRDNAKNTVYLQMNSLQPEDTAVYYCAAAPTSFATTAYSSSNSYAYWGQGTQVTVSS', 0.112),
  ('FJ1427_P035MP07C09 (VHH, tested as periplasmic extract; also called Clone nr; 643) VHH: QVQLVESGGGLVQAGGSLRLSCAASGRTLSRYAMGWFRQAPGKEREYVAIDSWGGDTFYADSVEGRFTFSRDNAKNEVYLQMNSLQPEDTAVYYCAGAPTSFATTAYSSSNSYRYWGQGTQVTVSS', 0.00703),
  ('FJ1427_P035MP07G05 (VHH, tested as periplasmic extract; also called Clone nr) VHH: QVQLVESGGGLVQAGGSLRLSCAASGRTLSRYAMGWFRQAPGKEREFVAADSWGGDTYYADSVEGRFTFSRDNANNAVYLQMNSLQPEDTAVYYCAAAPTSFATTAYSSSNSYAYWGQGTQVTVSS', 0.191),
  ('FJ1427_P035MP07B02 (VHH, tested as periplasmic extract; also called Clone nr) VHH: EVQLVESGGGLVQAGGSLRLSCAASGRALSRLAMGWFRQAPGKEREFVVASSWGDDTFYADSVKGRFTFSRDNAKNTVYLQMNSLQPGDTAVYYCAAAPTSFATTAYSSSNSYAYWGQGTQVTVSS', 0.0151),
  ('FJ1427_P035MP07D05 (VHH, tested as periplasmic extract; also called Clone nr) VHH: QVQLVESGGGLVQAGGSLRLSCAASGRTLSRNAMGWFRQAPGKEREFVAADSWGGDTFYADSVEGRFTFSRDNAKNAVYLQMNSLQPEDTAVYYCAGAPTSFATTAYSSSNSYRYWGQGTQVTVSS', 0.0609);

-- ask If you can, please state the reported koff value of FJ1427_P035MP07D02 (VHH, tested as periplasmic extract; also called Clone nr; 588) VHH: QVQLQESGGGLVQAGGSLRLSCAASGRALSRLAMGWFRQAPGKEREFVVASSWGDDTFYADSVKGRFTFSRDNAKNTVYLQMNSLQPGDTAVYYCAAAPTSFATTAYSSSNSYAYWGQGTQVTVSS .
-- reply 0.0127

-- ask If you can, please state the reported koff value of FJ1427_P035MP07F07 (VHH, tested as periplasmic extract; also called Clone nr; 630) VHH: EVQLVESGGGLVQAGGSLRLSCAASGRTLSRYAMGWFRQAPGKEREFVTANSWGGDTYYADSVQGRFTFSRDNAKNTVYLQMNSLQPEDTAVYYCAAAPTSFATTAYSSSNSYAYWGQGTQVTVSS .
-- reply 0.133

-- ask If you can, please state the reported koff value of FJ1427_P035MP07E04 (VHH, tested as periplasmic extract; also called Clone nr; 605) VHH: QVQLVESGGGLVQAGDSLRLSCEASGRTLSRYAMGWFRQAPGKEREFVTANSWGGDTYYADSVQGRFTFSRDNAKNTVYLQMNSLQPEDTAVYYCAAAPTSFATTAYSSSNSYAYWGQGTQVTVSS .
-- reply 0.103

Reference source for all entries: patent US20240409645A1
